- Test system: Trypanosoma cruzi
- METHOD SUMMARY: Trypanosoma cruzi phosphomannomutase and mannose-1-phosphate guanylyltransferase assay
- Type: functional
- Set-up: scale not given: direction of the effect not stated beside the values
- MEASUREMENT CONDITIONS: 10 µM
MEASUREMENT LABEL: Percent Effect (%)
Give the quantity in %, number only.

Q: Please look up its Percent Effect: COC(=O)c1cccc(C(=O)N2CCCCC2CCn2ccnc2C)c1 (stereo unspecified)
Result: 0.487

Q: Please look up its Percent Effect: Cc1n[nH]c(C2CN(C(=O)c3ccco3)CCO2)n1 (stereo unspecified)
Result: 1.07

Q: Please look up its Percent Effect: Cc1cnn(C2CCCN(C(=O)C3=NN(C)C(=O)CC3)C2)c1 (stereo unspecified)
Result: 8.4

Q: Please look up its Percent Effect: CCc1cnc(CN(C(C)=O)C2CCN(CCc3cccs3)C2)o1 (stereo unspecified)
Result: -4.95

Q: Please look up its Percent Effect: Cc1csc(N2CCN(C(=O)Cc3ccsc3)CC2)n1
Result: 7.26

Q: Please look up its Percent Effect: Fc1ccc(CN2CCC(c3nccnc3-n3ccnc3)CC2)cc1
Result: 3.75
